- TARGET_DESC: T1, recombinant LILRB1 ECD (human, UniProt Q8NHL6 24-461)
- T1 construct: also called biotinylated LILRB1 ECD
- ASSAY_DETAILS: BLI, IgG on AHC sensor, ECD in solution
Known Kd of a selection of binders
Report the value in nM with no unit label.

QUERY: Consider the binder shown here: A-038 (antibody, V domains shown, tested as IgG) VH: QVQLVQSGAEVKKPGSSVKVSCKASGGTFSSYAISWVRQAPGQGLEWMGGIIPIFGTANYAQKFQGRVTITADESTSTAYMELSSLRSEDTAVYYCAKGPPVGSSSWYTDWYFDLWGRGTLVTVSS VL: SYELTQPPSVSVSPGQTASITCSGDKLGDKYASWYQQKPGQSPVLVIYQDSKRPSGIPERFSGSNSGNTATLTISGTQAEDEADYYCSLYGAGHTVVFGGGTKLTVL What is its recorded Kd?
RESULT: 6.7

QUERY: Do the same for A-013 (antibody, V domains shown, tested as IgG) VH: QVQLVQSGAEVKKPGSSVKVSCKASGGTFRQEAFSWVRQAPGQGLEWMGSIIPIFYSSNYAQKFQGRVTITADESTSTAYMELSSLRSEDTAVYYCAKDLGTYSSGWPYYYGMDVWGQGTTVTVSS VL: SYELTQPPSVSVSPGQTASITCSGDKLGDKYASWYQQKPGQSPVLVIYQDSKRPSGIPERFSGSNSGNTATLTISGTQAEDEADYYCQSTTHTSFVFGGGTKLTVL please
RESULT: 6.3

QUERY: Do the same for A-014 (antibody, V domains shown, tested as IgG) VH: QVQLVQSGAEVKKPGSSVKVSCKASGGTFSSYAINWVRQAPGQGLEWMGGIIPIFHTSNYAQKFQGRVTITADESTSTAYMELSSLRSEDTAVYYCAKDLGTYSSGWPYYYGMDVWGQGTTVTVSS VL: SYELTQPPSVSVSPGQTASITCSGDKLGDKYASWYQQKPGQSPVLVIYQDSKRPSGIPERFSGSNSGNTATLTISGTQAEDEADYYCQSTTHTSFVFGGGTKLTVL please
RESULT: 4.4
